biological target: T1, MUC1 on MUC1+ human cancer cell lines and tumor tissue (abnormal, e.g. hypoglycosylated, tumor MUC1) (human, UniProt P15941 24-1255); assay: flow cytometry, HPAF cells
T1 construct: the MUC1 of each cell line or tissue (number of repeats, glycoform) is not specified; The cell line or tissue is named under assay; also called MUC1 on HPAF, MCF-7, BT-20, SKBR-3, PANC-1, MS+MUC1 cells; MUC1 on colon and pancreatic tumor samples
reportedProperty: percentage of APC+ stained cells
Output should be the measured figure followed by the unit it is expressed in.

Entry M3 (antibody, human IgG1, lambda, V domains shown, Human IgG) VH: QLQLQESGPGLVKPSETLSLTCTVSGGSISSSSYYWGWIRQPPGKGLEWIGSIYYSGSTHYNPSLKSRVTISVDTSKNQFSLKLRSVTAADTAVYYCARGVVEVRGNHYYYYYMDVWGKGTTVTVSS VL: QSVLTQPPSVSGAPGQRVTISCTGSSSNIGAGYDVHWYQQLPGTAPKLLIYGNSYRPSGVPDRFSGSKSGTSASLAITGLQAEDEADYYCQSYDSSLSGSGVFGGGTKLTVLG — recorded percentage of APC+ stained cells = 42.1%
